- ASSAY TARGET: Hepatocyte nuclear factor 3-beta (Homo sapiens)
- ASSAY METHOD TEXT: ATG_FoxA2_CIS: Attagene CIS-FACTORIAL HepG2 Assay for human Forkhead box A2 (FOXA2) (AID 2282942)
- CONDITION LABEL: HepG2 cis-reporter transcription factor activity, 24 h; actives raise or lower the signal
Active and inactive are the calls of the source. Rule for the calls: active = hit-call score of the fitted dose curve at least 0.9, where 1 is the maximum; inactive = score below 0.9.
REPORTED PROPERTY: outcome

Consider the reported outcome for these compounds:
Nc1ccc([N+](=O)[O-])cc1O :: inactive
CCCCOc1ccc(N)cc1 :: inactive
CNC(=S)NC :: inactive
CC(C)OC(=O)c1ccccc1C(=O)OC(C)C :: inactive
FC(F)(F)C(F)(F)C(F)(F)C(F)(F)C(F)(F)C(F)(F)C(F)(F)C(F)(F)CCS :: inactive

Look up outcome: CC(CCl)OP(=O)(OC(C)CCl)OC(C)CCl (stereo unspecified)
inactive

Follow-up item: O=S(=O)(O)c1ccc2ccccc2c1
inactive

Follow-up item: Cc1cc(C)cc(O)c1
inactive

Follow-up item: C=CC(F)(F)C(F)(F)C(F)(F)C(F)(F)C(F)(F)C(F)(F)C(F)(F)C(F)(F)C=C
inactive

Follow-up item: O=C(O)C(F)(F)C(F)(F)C(F)(F)F
inactive

Follow-up item: Cc1ccc(S(=O)(=O)NCl)cc1
inactive

Follow-up item: O[Si](c1ccccc1)(c1ccccc1)c1ccccc1
inactive

Follow-up item: CC(C)c1ccccc1N
inactive

Follow-up item: CCCCC(CC)COP(=O)(O)OCC(CC)CCCC (stereo unspecified)
inactive

Follow-up item: CCCCOCCOCCOC(=O)CCCCC(=O)OCCOCCOCCCC
inactive

Follow-up item: O=S(=O)(OCC(F)F)C(F)(F)F
inactive

---

- ASSAY TARGET: Retinoic acid receptor RXR-alpha (Homo sapiens) (UniProt P19793)
- Sequence (P19793 whole entry, looked up): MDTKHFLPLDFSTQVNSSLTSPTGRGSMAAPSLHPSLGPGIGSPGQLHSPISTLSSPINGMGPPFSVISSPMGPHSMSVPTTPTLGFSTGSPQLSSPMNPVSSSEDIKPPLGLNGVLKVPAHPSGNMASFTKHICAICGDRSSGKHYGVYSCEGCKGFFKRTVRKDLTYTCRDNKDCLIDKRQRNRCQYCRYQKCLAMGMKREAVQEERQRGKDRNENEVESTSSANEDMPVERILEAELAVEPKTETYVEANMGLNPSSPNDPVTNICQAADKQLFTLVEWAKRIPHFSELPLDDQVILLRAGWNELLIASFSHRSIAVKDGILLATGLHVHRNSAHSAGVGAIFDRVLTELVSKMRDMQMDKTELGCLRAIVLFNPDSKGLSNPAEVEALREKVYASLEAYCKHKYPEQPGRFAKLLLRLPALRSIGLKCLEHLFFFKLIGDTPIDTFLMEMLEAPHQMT
- ASSAY METHOD TEXT: OT_NURR1_NURR1RXRa_0480: Odyssey Thera (OT) 8-hour HEK293T Protein Complementation Assay for Nurr1/retinoid X receptor (RXR) (AID 2283385)
Records with an inconclusive call do not appear. The source made the active and inactive calls. How the source made its calls: active means hit-call score of the fitted dose curve at least 0.9, where 1 is the maximum; inconclusive means response in the unintended direction; inactive means score below 0.9.
Field 'call' accepts Y for active, N for inactive

Write down the call the test reported for this compound. Item: O=S(=O)(O)c1ccc2ccccc2c1
N

Follow-up item: CCCCOc1ccc(N)cc1
N

Follow-up item: CCN(Cc1cccc(S(=O)(=O)O)c1)c1ccc(C(=C2C=CC(=[N+](CC)Cc3cccc(S(=O)(=O)O)c3)C=C2)c2ccc(O)cc2S(=O)(=O)[O-])cc1
N

Follow-up item: CCCCCCOC(=O)c1ccccc1O
N

Follow-up item: C(=C(c1ccccc1)c1ccccc1)c1ccccc1
Y

Follow-up item: OC[C@@H](O)[C@@H](O)[C@H](O)[C@@H](O)CO
N

Follow-up item: CC/C=C\CCOC(C)=O
N

Follow-up item: CCCCCCC(C)OC(=O)CCCCC(=O)OC(C)CCCCCC (configuration not stated)
N

Follow-up item: CCCCC(CC)COP(=O)(O)OCC(CC)CCCC (configuration not stated)
N

Follow-up item: CC(CCl)OP(=O)(OC(C)CCl)OC(C)CCl (configuration not stated)
N

Follow-up item: CCCCCCOC(=O)c1ccccc1
N

Follow-up item: C#C[C@]1(O)CC[C@H]2[C@@H]3CCc4cc(OC)ccc4[C@H]3CC[C@@]21C
N

---

- Read-out: Interleukin-8 (IL8), CXCL8 (gene 3576)
- ASSAY METHOD TEXT: BSK_MyoF_IL8: BioMAP Diversity Plus: MyoF Assay for Interleukin-8 (IL8) Biomarker Activity (AID 2284261)
- CONDITION LABEL: primary human lung fibroblasts
Active and inactive are the calls of the source. How the source made its calls: active means hit-call score of the fitted dose curve at least 0.9, where 1 is the maximum; inactive means score below 0.9.
Field 'call' accepts T for active, F for inactive

Write down the call the test reported for this compound. Item: O=C(O)C(F)(F)C(F)(F)OC(F)(F)F
F

Follow-up item: CCCCCCCOC(=O)c1ccccc1C(=O)OCCCCCCC
F

Follow-up item: CCCCCCCCCCCCCCCC[N+](C)(C)Cc1ccccc1
T

Follow-up item: CCCCCCCCC(F)(F)C(F)(F)C(F)(F)C(F)(F)C(F)(F)C(F)(F)F
F

Follow-up item: O=C(Cl)C(F)(F)C(F)(F)C(F)(F)C(F)(F)C(F)(F)C(F)(F)C(F)(F)C(F)(F)F
F

Follow-up item: C=C(C)C(=O)OCC(F)(F)C(F)(F)C(F)(F)C(F)(F)C(F)(F)C(F)(F)C(F)(F)F
F

Follow-up item: FC(F)(F)C(F)(F)C(F)(F)C(F)(F)C(F)(F)CCI
F

Follow-up item: O=S(=O)(OCC(F)F)C(F)(F)F
F

Follow-up item: Cc1ccc(S(=O)(=O)OCC(F)(F)C(F)(F)C(F)(F)C(F)(F)C(F)(F)C(F)F)cc1
F

Follow-up item: CCc1c(Br)c(Br)c(Br)c(Br)c1Br
F

Follow-up item: O[Si](c1ccccc1)(c1ccccc1)c1ccccc1
T

---

- Read-out: Monocyte Chemoattractant Protein-1 (MCP1), CCL2 (gene 6347)
- ASSAY METHOD TEXT: BSK_CASM3C_MCP1: BioMAP Diversity Plus: CASM3C Assay for Monocyte Chemoattractant Protein-1 (MCP1) Biomarker Activity (AID 2283046);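 note: MCP-1 level quantified by ELISA 24 h after dosing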
- CONDITION LABEL: primary human coronary artery smooth muscle cells; actives raise or lower the signal
The source made the active and inactive calls. Rule for the calls: active = hit-call score of the fitted dose curve at least 0.9, where 1 is the maximum; inactive = score below 0.9.
Field 'call' accepts yes for active, no for inactive

Write down the call the test reported for this compound. Item: CC(C)(C)C(=O)CC(=O)C(F)(F)C(F)(F)C(F)(F)F
no

Follow-up item: N=C(N)C(F)(F)C(F)(F)C(F)(F)C(F)(F)C(F)(F)C(F)(F)C(F)(F)F
no

Follow-up item: CS(C)(=O)=O
no

Follow-up item: O=C(O)C(F)(OC(F)(F)C(F)(OC(F)(F)C(F)(F)C(F)(F)F)C(F)(F)F)C(F)(F)F (configuration not stated)
no

Follow-up item: Oc1ccc(Nc2ccccc2)cc1
no

Follow-up item: C=C(C)C(=O)OCCC(F)(F)C(F)(F)C(F)(F)C(F)(F)C(F)(C(F)(F)F)C(F)(F)F
no

Follow-up item: FC(F)(F)C(F)(F)C(F)(F)C(F)(F)C(F)(F)C(F)(F)C(F)(F)Br
no

Follow-up item: FC(F)(F)C(F)(F)C(F)(F)C(F)(F)C(F)(F)CCI
no

Follow-up item: CCCCCCOC(=O)c1ccccc1O
no

Follow-up item: C=CC(F)(F)C(F)(F)C(F)(F)C(F)(F)C(F)(F)C(F)(F)C(F)(F)C(F)(F)F
no

Follow-up item: C=CC/C=C/C/C=C/C/C=C/C
no

Follow-up item: FC(F)(F)C(F)(F)C(F)(F)C(F)(F)C(F)(F)C(F)(F)CCS
no

Follow-up item: O=C(Cl)C(F)(F)C(F)(F)C(F)(F)C(F)(F)C(F)(F)C(F)(F)C(F)(F)C(F)(F)F
no

Follow-up item: CC(=O)Nc1ccc(N=Nc2cc(C)ccc2O)cc1
no

Follow-up item: C#C[C@]1(O)CC[C@H]2[C@@H]3CCc4cc(OC)ccc4[C@H]3CC[C@@]21C
no

Follow-up item: FC(F)(Br)C(F)(F)C(F)(F)C(F)(F)C(F)(F)C(F)(F)Br
no

Follow-up item: O=C(O)C(F)(OC(F)(F)C(F)(OC(F)(F)C(F)(OC(F)(F)C(F)(F)C(F)(F)F)C(F)(F)F)C(F)(F)F)C(F)(F)F (configuration not stated)
no

Follow-up item: FC(F)(F)C(F)(F)C(F)(F)C(F)(F)C(F)(F)C(F)(F)C(F)(F)I
no

Follow-up item: FC1CC(F)(F)C(F)(F)C1(F)F (configuration not stated)
no

Follow-up item: CC(CCl)OP(=O)(OC(C)CCl)OC(C)CCl (configuration not stated)
yes

Follow-up item: O=C(O)C(F)(F)C(F)(F)C(F)(F)C(F)(F)F
no

Follow-up item: CCN(CC)c1ccc2c(C)cc(=O)oc2c1
no

Follow-up item: NC(=O)C(F)(F)C(F)(F)C(F)(F)C(F)(F)F
no

Follow-up item: OCC(F)(F)C(F)(F)C(F)(F)C(F)(F)C(F)(F)C(F)F
no

Follow-up item: OCC(F)(F)C(F)(F)C(F)(F)C(F)(F)C(F)(F)C(F)(F)F
no

Follow-up item: O=S(=O)(OCCOC(F)(F)F)C(F)(F)F
no

Follow-up item: CCCCCCCCC(F)(F)C(F)(F)C(F)(F)C(F)(F)C(F)(F)C(F)(F)F
no

Follow-up item: CO[Si](OC)(c1ccccc1)c1ccccc1
yes

Follow-up item: COC(=O)CCC(F)(F)C(F)(F)C(F)(F)C(F)(F)F
no

Follow-up item: FC(F)(F)C(F)(F)C(F)(F)N(C(F)(F)C(F)(F)C(F)(F)F)C(F)(F)C(F)(F)C(F)(F)F
no

Follow-up item: O=C(O)C(F)(F)C(F)(F)C(F)(F)C(F)(F)C(F)(F)C(F)(F)C(F)(F)C(F)(F)Cl
no

Follow-up item: CCCCCCCOC(=O)c1ccccc1C(=O)OCCCCCCC
no

Follow-up item: CCCCC(CC)COP(=O)(O)OCC(CC)CCCC (configuration not stated)
no

Follow-up item: OCCCC(F)(F)C(F)(F)C(F)(F)F
no

Follow-up item: CCCCOCCOCCOC(=O)CCCCC(=O)OCCOCCOCCCC
no

Follow-up item: FC(F)(F)C(F)(F)C(F)(F)C(F)(F)C(F)(F)C(F)(F)C(F)(F)C(F)(F)F
no

Follow-up item: CCc1c(Br)c(Br)c(Br)c(Br)c1Br
no

Follow-up item: O=C(O)C(F)(F)C(F)(F)C(F)(F)F
no

Follow-up item: OCC(F)(F)C(F)(F)C(F)(F)F
no

Follow-up item: O=C(O)C(F)(F)C(F)(F)C(F)(F)C(F)(F)C(F)(F)C(F)(F)C(F)(F)C(F)(F)C(F)(F)C(F)F
no

Follow-up item: O=S(=O)(OCC(F)F)C(F)(F)F
no

Follow-up item: C=CC(F)(F)C(F)(F)C(F)(F)C(F)(F)C(F)(F)C(F)(F)C(F)(F)C(F)(F)C=C
no

Follow-up item: O=C(O)C=C(C(F)(F)F)C(F)(F)F
no

Follow-up item: O=C(O)C(F)(F)C(F)(F)C(F)(F)C(F)(F)C(F)(F)C(F)(F)C(F)(F)C(F)(F)C(F)(F)C(F)(F)C(F)(F)C(F)(F)F
no

Follow-up item: Nc1ccc([N+](=O)[O-])cc1O
no

Follow-up item: O=C(O)C(F)(F)C(F)(F)F
no

Follow-up item: C=C(C)C(=O)OCC(F)(F)C(F)(F)C(F)(F)F
no

These data points were gathered from PubChem BioAssay (EPA / NIEHS).
